system: PPARg:RXRa 30nM:10nM, anti-RXR (NR concentration 30 nM, RXRa partner concentration 10 nM); assay: PBM binding z-score (relative to random genomic background probes); higher = stronger binding; sequences stand for … in GC…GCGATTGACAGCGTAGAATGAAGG
Label criterion met when PBM binding z-score is at or above 1; anything below gets criterion not met.

# bool: PBM binding z-score of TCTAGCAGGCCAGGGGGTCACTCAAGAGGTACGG >= 1 criterion met

More entries:
Would you say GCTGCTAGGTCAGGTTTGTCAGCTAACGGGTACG shows PBM binding z-score at minimum 1? criterion not met

I'd appreciate it if you could say whether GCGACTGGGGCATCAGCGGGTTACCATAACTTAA has PBM binding z-score at least equal to 1. criterion not met

Given the entry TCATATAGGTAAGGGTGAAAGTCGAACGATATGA , answer whether its PBM binding z-score meets or surpasses 1. criterion met

Could you tell me if the measured PBM binding z-score of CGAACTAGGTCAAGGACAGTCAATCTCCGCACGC reaches 1 or more? criterion met

Please tell me: is the sequence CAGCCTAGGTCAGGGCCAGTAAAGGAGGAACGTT at or over 1 in terms of PBM binding z-score? criterion not met
